Origin of measurements: patent US20210206841A1

# measured target: T1, tail-chimeric peptide IhfA3-IhfB2NTHI (nontypeable Haemophilus influenzae …)
# T1 construct: also called IHF(NTHI) tail chimeric peptide; IHFNTHI tail chimeric peptide
# T1 peptide: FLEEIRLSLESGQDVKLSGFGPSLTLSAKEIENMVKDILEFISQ
# assay details: SPR Biacore 3000, peptide immobilized, HuMab as analyte
property measured: kon (M⁻¹ s⁻¹)
Report only the number, with the unit M⁻¹ s⁻¹ understood.

kon reported for this binder humanized anti-tail monoclonal antibody, heavy chain SEQ ID NO: 6 and light chain SEQ ID NO: 10 (antibody, V domains shown, also called H10215 (11E7.C7 Humanized HC3) + L10213 (11E7.C7 Humanized LC1)) VH: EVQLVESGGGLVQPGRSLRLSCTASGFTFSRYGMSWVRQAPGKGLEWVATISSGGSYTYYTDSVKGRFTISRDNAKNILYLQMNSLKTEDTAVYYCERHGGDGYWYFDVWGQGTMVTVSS VL: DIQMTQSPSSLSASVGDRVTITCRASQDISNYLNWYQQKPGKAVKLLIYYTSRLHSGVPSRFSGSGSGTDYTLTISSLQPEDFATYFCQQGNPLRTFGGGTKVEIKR : 180000

humanized anti-tail monoclonal antibody, heavy chain SEQ ID NO: 4 and light chain SEQ ID NO: 11 (antibody, V domains shown, also called H10213 (11E7.C7 Humanized HC1) + L10214 (11E7.C7 Humanized LC2)) VH: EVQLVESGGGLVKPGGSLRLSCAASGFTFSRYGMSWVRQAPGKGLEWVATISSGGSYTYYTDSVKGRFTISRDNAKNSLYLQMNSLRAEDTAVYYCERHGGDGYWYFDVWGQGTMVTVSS VL: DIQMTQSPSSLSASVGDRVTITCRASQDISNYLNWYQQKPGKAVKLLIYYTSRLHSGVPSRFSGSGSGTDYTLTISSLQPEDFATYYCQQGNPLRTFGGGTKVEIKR yielded kon of 140000

Note to self: kon recorded for humanized anti-tail monoclonal antibody, heavy chain SEQ ID NO: 6 and light chain SEQ ID NO: 11 (antibody, V domains shown, also called H10215 (11E7.C7 Humanized HC3) + L10214 (11E7.C7 Humanized LC2)) VH: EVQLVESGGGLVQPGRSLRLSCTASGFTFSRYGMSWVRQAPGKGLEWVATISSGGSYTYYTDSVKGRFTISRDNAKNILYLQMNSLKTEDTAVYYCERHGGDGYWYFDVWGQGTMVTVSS VL: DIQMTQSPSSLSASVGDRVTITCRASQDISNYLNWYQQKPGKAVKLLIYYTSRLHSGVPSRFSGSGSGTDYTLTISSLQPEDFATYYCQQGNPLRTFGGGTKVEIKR was 160000
